# Tested on: NOMO1
# experimental_details: cell viability relative to DMSO control; higher = less cytotoxic
# condition_parameters: RPMI 5 mM glucose + 10% dialyzed FBS; 48 h; 0.569 µM
reported_property: cell viability (%)

In [3]: df
Out[3]:
                                   molecule  reported_property  reported
0  CC(C)c1onc(-c2c(Cl)cccc2Cl)c1COc1ccc(/C=C/c2cccc(C(=O)O)c2)c(Cl)c1     cell viability       129
1  Nc1ccc(C(=O)Nc2cccc(-c3nc(N4CCOCC4)c4oc5ncccc5c4n3)c2)cn1     cell viability        91
2  NCCCC(N)(C(=O)O)C(F)F (stereo not given)     cell viability       108
3  Cc1cn2cc(C(=O)N(C)CCO)cc(N[C@@H]3CCOc4cccc(C)c43)c2n1     cell viability       122
4  CNc1nc(-c2ccc3c(N)n[nH]c3c2)cc(N2C[C@@H](C(=O)NC3CCCCC3)CC[C@H]2C)n1     cell viability      70.3

---

Recorded measurements of cell viability, one per entry
# System: SEM cells
# experimental_details: cell viability relative to DMSO control; higher = less cytotoxic
# condition_parameters: RPMI 5 mM glucose + 10% dialyzed FBS; 48 h; 15.4 µM

molecule	display_unit	cell viability
CNc1nc(-c2ccc3c(N)n[nH]c3c2)cc(N2C[C@@H](C(=O)NC3CCCCC3)CC[C@H]2C)n1	%	50.7
CCC(C)CCCCC(=O)N[C@@H](CCN)C(=O)NC(C(=O)N[C@H](CCN)C(=O)N[C@@H]1CCNC(=O)C([C@@H](C)O)NC(=O)[C@@H](CCN)NC(=O)[C@@H](CCN)NC(=O)[C@@H](CC(C)C)NC(=O)[C@H](Cc2ccccc2)NC(=O)[C@H](CCN)NC1=O)[C@@H](C)O (stereo partly drawn)	%	102
Nc1n[nH]c2nnc(-c3c(-c4ccccc4)nn4ccccc34)cc12	%	116

---

Recorded measurements of cell viability, one per entry
# System: NOMO1
# experimental_details: cell viability relative to DMSO control; higher = less cytotoxic
# condition_parameters: HPLM + 10% dialyzed FBS; 48 h; 15.4 µM
reported_property: cell viability (%)

In [3]: df
Out[3]:
                                   compound  target_desc  display_unit  reported
0  C[S+](=O)([O-])Oc1ccc2c(NC(N)=O)c(C(=O)c3ccc(Cl)cc3Cl)oc2c1        NOMO1             %       100
1  CCNC(=O)CCC/C=C\C[C@@H]1[C@@H](/C=C/C(O)CCc2ccccc2)[C@@H](O)C[C@@H]1O (some centres not stated)        NOMO1             %       110
2  CN(C)C/C=C/C(=O)Nc1ccc(C(=O)Nc2cccc(Nc3ncc(Cl)c(-c4c[nH]c5ccccc45)n3)c2)cc1        NOMO1             %      3.89
3  O=C(/C=C/c1ccc(/C=C/C(=O)Nc2ccc(C3=NCCN3)cc2)cc1)Nc1ccc(C2=NCCN2)cc1        NOMO1             %       111
4  CC(=O)SC[C@@H](C)C(=O)N1CCC[C@H]1C(=O)N[C@@H](Cc1ccccc1)C(=O)O        NOMO1             %       110
5  C[C@]1(O)CC(C1)C2=NC(=C3[N]2C=CN=C3N)C4=CC5=C(C=C4)C=CC(=N5)C6=CC=CC=C6 (configuration not stated)        NOMO1             %      3.24
6  O=C(O)c1cc(O)c2c(c1)C(=O)c1cccc(O)c1C2=O        NOMO1             %       104
